Below: a set of entries, each annotated with reported binding signal.
Biological target: TDP-43 (Homo sapiens, UniProt Q13148 1-414)
Sequence (Q13148 whole entry): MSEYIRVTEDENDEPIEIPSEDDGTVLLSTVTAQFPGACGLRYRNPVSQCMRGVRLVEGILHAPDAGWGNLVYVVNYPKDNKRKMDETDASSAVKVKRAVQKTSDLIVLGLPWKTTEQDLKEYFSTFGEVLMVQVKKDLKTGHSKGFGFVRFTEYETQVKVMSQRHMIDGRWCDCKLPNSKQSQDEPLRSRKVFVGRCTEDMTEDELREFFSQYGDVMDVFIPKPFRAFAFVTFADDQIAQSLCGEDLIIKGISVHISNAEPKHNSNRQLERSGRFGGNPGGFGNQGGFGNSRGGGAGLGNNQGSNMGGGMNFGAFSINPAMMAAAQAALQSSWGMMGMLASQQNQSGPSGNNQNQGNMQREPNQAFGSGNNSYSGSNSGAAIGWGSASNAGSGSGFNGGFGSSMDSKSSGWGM
Assay: RNA Bind-n-Seq with designed 260-mer pool; 25 mM Tris-HCl, 150 mM KCl, 3 mM MgCl2, BSA (printed 500 mg/mL), 20 units/mL SUPERase IN; pH not stated; 500 nM RNA pool, 1 h, 4 C; TDP-43 5, 50, 500 nM; high values mean tight binding
Settings: protein: recombinant; tags: SBP (GST cleaved off with PreScission; pGEX-GST-SBP)
Whole data set: some 9,900 sequences, median “r (bound/input frequency ratio)” near 0.7, cut for the highest 2% near 6.5. What follows is part of a selection rich in the highest values, with near analogues and random picks from the rest.
PROPERTY_LABEL: binding signal

BINDER: ENSMUSG00000028439.151|Fam219a (ssRNA) RNA: GGGAGUUCUACAGUCCGACGAUCGCUUCGAUAUCCGCAUGCUAAAGGCUGGCCUCCUGUGCCCCAUUGCCAUUUCACCCUAGCUCAAAGUCCAGGAGCCAGGCUUCCAGAAAGGCUCUUCAAGAGCAAGCUUAAGGAAAUACAGUGAGCCAAGUGGCUGUAUGAUAUGGUAUGGUAUGGUAUGGUAUGGUAUGGUAUGGUAUGCACAUGUGUGUGCAUGUGUGUGUGCCUGUGUGUGUGCGUGUGCGUGUGUGUAUGUGUGUGCGUGUGUGUGUGUGUGUGUUGUACCCGAGUGUGUGUUGAGCUCUUGCGGUCGCACUAGUGUGGAAUUCUCGGGUGUCAAGG
PROPERTY_LABEL: binding signal
READOUT_VALUE: 6.07 R (bound/input frequency ratio)

BINDER: ENSMUSG00000004113.216|Cacna1b (ssRNA) RNA: GGGAGUUCUACAGUCCGACGAUCGCUUCGAUAUCCGCAUGCUAGUCUUAGGGACAUUGACAGUGUCCAUCAGCAUGUCAGAGAAGCAGCUGUAGUGCCCGUGUUUCUCCCUGAGUCAUGGGUUCUGAAGAAGCCAGAGCGGCACAAUGCGUGCUUGCAUGAGGCACUUUCAGCCUUUUUAAAUCUGACUCUCAGGGAUGGGAUGCCUGCCAAGUAGGGUGUAAUCUCUGUUGUGUUUUUAAAACAACAACAACAAAAUAAAACAAAAAAAAAAAACCUAGUAUUCACUGGAUGCUGAAGAGUGCUCUUGCGGUCGCACUAGUGUGGAAUUCUCGGGUGUCAAGG
PROPERTY_LABEL: binding signal
READOUT_VALUE: 1.66 R (bound/input frequency ratio)

BINDER: ENSMUSG00000028439.152|Fam219a (ssRNA) RNA: GGGAGUUCUACAGUCCGACGAUCGCUUCGAUAUCCGCAUGCUAGGCCUCCUGUGCCCCAUUGCCAUUUCACCCUAGCUCAAAGUCCAGGAGCCAGGCUUCCAGAAAGGCUCUUCAAGAGCAAGCUUAAGGAAAUACAGUGAGCCAAGUGGCUGUAUGAUAUGGUAUGGUAUGGUAUGGUAUGGUAUGGUAUGGUAUGCACAUGUGUGUGCAUGUGUGUGUGCCUGUGUGUGUGCGUGUGCGUGUGUGUAUGUGUGUGCGUGUGUGUGUGUGUGUGUUGUACCCGAGUGUGUGUUGAGCCUAUCCUCUUGCGGUCGCACUAGUGUGGAAUUCUCGGGUGUCAAGG
PROPERTY_LABEL: binding signal
READOUT_VALUE: 7.8 R (bound/input frequency ratio)

BINDER: ENSMUSG00000090935.575|Synj2bp (ssRNA) RNA: GGGAGUUCUACAGUCCGACGAUCGCUUCGAUAUCCGCAUGCUAAUUCAAAUUUUAUGUUUCUUAUAGACUGACUCAAAUAUUCCUACCACCUUAAAAUUAUAUAUGAUGCACCUACCACAUAAAUUAUAAUGUUUAAUGUUUUGAAAAUGGAUUAUAGGUAUUUUUAAGUUUUCAUAAAGUAUUUCUUAUAUUUGUCAUUGUGAAUUAUAUGUAAUUCUAAUAGACACUGUUUGCUUCAGUUGUUUUUGUUUCCUUUUCCUACAGUUUUCUGUGUGGGUGAUUUCAUUUAAUUAAUUGGACAGCUCUUGCGGUCGCACUAGUGUGGAAUUCUCGGGUGUCAAGG
PROPERTY_LABEL: binding signal
READOUT_VALUE: 0.0736 R (bound/input frequency ratio)

BINDER: ENSMUSG00000031028.56|Tub|187:199;217:221 (ssRNA) RNA: GGGAGUUCUACAGUCCGACGAUCGCUUCGAUAUCCGCAUGCUACCAAGGUCAACACACAUGCCCAGUCCUGGGUCAGUCCCCUGCUGCAGUGGUGUUAUCACACCGGAAAGCCUCUUCACCUGGAGGUACAGAGGGAGAGGAAGCACAAGCCUGGCUGCUGUGGCUCAGCCAUCCACUCAGCCUACGAGUCAGAGACAGUGGGUGUCCCGGGAAGCAGGGGUACAGUGACACACACACAUACUACAGGGCACUCAAGCUCAUACUAGAAAAAGCUCUGGUGGUCAGCAGAAAGCACUCCCACUCUCUUGCGGUCGCACUAGUGUGGAAUUCUCGGGUGUCAAGG
PROPERTY_LABEL: binding signal
READOUT_VALUE: 1.06 R (bound/input frequency ratio)

BINDER: ENSMUSG00000031028.306|Tub|133:137 (ssRNA) RNA: GGGAGUUCUACAGUCCGACGAUCGCUUCGAUAUCCGCAUGCUAAUUGCCAUCAGAGAACCCUCAGCGAGGUAGCCUUUGUUUACAGUCUAGUUUCUAGAGGGCAGUAGGACUUCCAUGCUGGGGCUGGCCUAUCUCCUGAUGAAAGAUUACAGUGCCAUCUCCUUCCCAUAGUUCACACACUGCCCUCCCUCCCUGACUUUAUAGGGAGAAAUCUCCUGACAUUAGAGGUGAUAGAAACCAGAGCUUUAGUCUAGUCAGGCUGUUUCUCUGGGUUGACAAGUUUAAGGUUGAACAGGCUGAUUCUCUUGCGGUCGCACUAGUGUGGAAUUCUCGGGUGUCAAGG
PROPERTY_LABEL: binding signal
READOUT_VALUE: 0.368 R (bound/input frequency ratio)

BINDER: ENSMUSG00000028439.136|Fam219a (ssRNA) RNA: GGGAGUUCUACAGUCCGACGAUCGCUUCGAUAUCCGCAUGCUAAACCAGUGCAUCUGUCUCUCUGCCUCAUCCCCACACCGCCCUGCCACCCCCAGUCUUCUGUCUAUUGGUUCCAGGCUGGAAGCAAGAGAUAAGGCUGGCCUCCUGUGCCCCAUUGCCAUUUCACCCUAGCUCAAAGUCCAGGAGCCAGGCUUCCAGAAAGGCUCUUCAAGAGCAAGCUUAAGGAAAUACAGUGAGCCAAGUGGCUGUAUGAUAUGGUAUGGUAUGGUAUGGUAUGGUAUGGUAUGGUAUGCACAUGUGUGCUCUUGCGGUCGCACUAGUGUGGAAUUCUCGGGUGUCAAGG
PROPERTY_LABEL: binding signal
READOUT_VALUE: 1.84 R (bound/input frequency ratio)
